test_target: T1, SPH-B011-A-Antigen-his蛋白 (人TIGIT) (human, UniProt Q495A1 22-141, limits assumed)
T1 construct: Analyte of the Biacore assay; also called 抗原(人TIGIT); not shown: his tag
T1 sequence (looked up): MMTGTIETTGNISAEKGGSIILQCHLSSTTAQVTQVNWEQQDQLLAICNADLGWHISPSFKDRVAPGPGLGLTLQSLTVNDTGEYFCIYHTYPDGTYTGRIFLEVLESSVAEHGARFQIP
assay_procedure: Biacore, antibody captured on anti-Fc CM5 chip, human TIGIT-his 100nM as analyte, 25℃
Reported values of koff for individual entries
State the answer as a number, implicitly in s⁻¹.

Please review the entries below; each comes with its answer.
binder: 人源化抗TIGIT抗体A1 (antibody, human IgG1, kappa, V domains shown, Humanized) VH: QLQLVQSGAEVKKPGASVKVSCKASGYSFTDYNMNWVRQAPGQSLEWIGVINPNHGTISYNQKFKGRVTMTRDQSTSTAYMELNSLRSEDTAVYYCANNWDVWYFDVWGQGTLVTVSS VL: DIQMTQSPSSLSASVGDRVTITCRPSENIYSYLAWYQQKPGKAPKLLIYNAKALAEGVPSRFSGSGSGTDFTLTISSLQPEDFATYYCQHHFGAPWTFGQGTKVEIKR
result_number: 0.00251
--
binder: 人源化抗TIGIT抗体A2 (antibody, human IgG1, kappa, V domains shown, Humanized) VH: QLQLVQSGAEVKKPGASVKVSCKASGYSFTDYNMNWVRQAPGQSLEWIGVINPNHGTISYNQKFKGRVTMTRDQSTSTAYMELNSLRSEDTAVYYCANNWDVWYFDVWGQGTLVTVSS VL: DIQMTQSPSSLSASVGDRVTITCRPSENIYSYLAWYQQKPGKAPKLLVYNAKALAEGVPSRFSGSGSGTDFTLTISSLQPEDFATYYCQHHFGAPWTFGQGTKVEIKR
result_number: 0.00241
--
binder: 人源化抗TIGIT抗体A4 (antibody, human IgG1, kappa, V domains shown, Humanized) VH: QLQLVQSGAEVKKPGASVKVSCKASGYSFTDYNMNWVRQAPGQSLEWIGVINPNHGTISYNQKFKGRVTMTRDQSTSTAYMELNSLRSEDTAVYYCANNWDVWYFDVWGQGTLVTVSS VL: DIQMTQSPSSLSASVGDRVTITCRPSENIYSYLAWYQQKPGNSPKLLVYNAKALAEGVPSRFSGSGSGTQFTLTISSLQPEDFATYYCQHHFGAPWTFGGGTKVEIKR
result_number: 0.00257

Please find the next binder below.
Write down koff measured for item 人源化抗TIGIT抗体A3 (antibody, human IgG1, kappa, V domains shown, Humanized) VH: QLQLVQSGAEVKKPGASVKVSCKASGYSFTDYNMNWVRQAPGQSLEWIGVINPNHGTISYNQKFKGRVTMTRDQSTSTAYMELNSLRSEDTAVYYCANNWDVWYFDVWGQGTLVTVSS VL: DIQMTQSPSSLSASVGDRVTITCRPSENIYSYLAWYQQKPGNAPKLLVYNAKALAEGVPSRFSGSGSGTQFTLTISSLQPEDFATYYCQHHFGAPWTFGQGTKVEIKR 0.00225
